tgt: T1, RSV prefusion F (preF), subtype B (respiratory syncytial virus subtype B)
T1 construct: also called Prefusion subtype B
measurement_notes: BLI, IgG
pKd: −log10 of the molar value.
Label condition met when pKd >= 9; otherwise condition not met.

binder	label_class
ADI-22756 (antibody, V domains shown, full-length IgG) VH: EVQLLESGGGVVQPGRSLRLSCVASGFTFSTYGVHWVRQAPGKGLEWVAVISYDGANKDYADSVKGRFTISRDNSKNTLYLQMNSLRAEDTAVYYCAKMITRVLPGGFDRWGQGTLVTVSS VL: EIVMTQSPGTLSLSPGERATLSCRASQSVSSAYLAWYQQKPGQAPRLLIYDASRRATGIPDRFSGSGSGTDFTLTISRLEPEDFAVYYCQQYGSSRFTFGQGTKVEIK	condition not met
ADI-19507 (antibody, V domains shown, full-length IgG) VH: EVQLVESGGGLVKPGGSLRLSCAASGFTFSSYSMNWVRQAPGKGLEWVSSISSSSSYIYYADSVKGRFTISRDNAKNSLYLQMNSLRAEDTAVYYCAREVLTGDYLGWFDPWGQGTLVTVSS VL: QSVVTQPPSVSGAPGQRVTISCTGSSSNIGAGYDVHWYQQLPGTAPKLLIYGNSNRPSGVPDRFSGSKSGTSASLAITGLQAEDEADYYCQSYDSSHWVFGGGTKLTVL	condition not met
ADI-22759 (antibody, V domains shown, full-length IgG) VH: EVQLLESGGGLVKPGGSLRLSCAASGFSFSSYTMNWVRQAPGKGLEWVSSITGGSSYIDYAGSLKGRFTISRDNAKNSLYLQMNSLRVEDTAVYYCARDFPNIAVGGKTLDYWGQGTLVTVSS VL: QPVLTQPPSVSGAPGQRVTISCTGSSSNIGAGYDVHWFQQLPGTAPKLLIYVNNNRPSGVPDRFSGSKSGTSASLAITGLQAEDEADYYCQSYDRLSAVVFGGGTKVTVL	condition met
ADI-14388 (antibody, V domains shown, full-length IgG; also called Ab 55) VH: EVQLVESGGGVVQPGRSLRLSCAASGFTFSSYPMHWVRQAPGKGLEWVAVISYDGSNKYYADSVKGRFTISRDNSKNTLYLQMNSLRAEDTAVYSCARAQSAAIFDHWGQGTLVTVSS VL: QAVVTQEPSLTVSPGGTVTLTCASSTGAVTSGYYPNWFQQKPGQAPRALIYTTSKRHSWTPARFSGSLLGGKAALTLSGVQPEDEADYYCLLYYGGANWVFGGGTKLTVL	condition not met
ADI-22774 (antibody, V domains shown, full-length IgG) VH: EVQLLESGGGLVKPGGSLRLSCAASGFTFSSYSMNWVRQAPGKGLEWVSSISSSSSYIYYADSVKGRFTISRDNAKNSLYLQMNSLRAEDTAVYYCAREGASGYNYRYYFDYWGQGTLVTVSS VL: QSVLTQPPSVSGAPGQRVTISCTGSSSNIGAGYDVHWYQQFPGAAPKLLIYGNNNRPSGVPDRFSGSKSGTSASLAITGLQADDEADYYCQSYDSSLSGYVVFGGGTKLTVL	condition not met
